# study.target: T1, recombinant human heat shock cognate 71 kDa protein (Hsc70) (human, UniProt P11142 1-646, limits assumed)
# T1 construct: also called rhHsc70; human Hsc70
# T1 sequence (P11142 whole entry): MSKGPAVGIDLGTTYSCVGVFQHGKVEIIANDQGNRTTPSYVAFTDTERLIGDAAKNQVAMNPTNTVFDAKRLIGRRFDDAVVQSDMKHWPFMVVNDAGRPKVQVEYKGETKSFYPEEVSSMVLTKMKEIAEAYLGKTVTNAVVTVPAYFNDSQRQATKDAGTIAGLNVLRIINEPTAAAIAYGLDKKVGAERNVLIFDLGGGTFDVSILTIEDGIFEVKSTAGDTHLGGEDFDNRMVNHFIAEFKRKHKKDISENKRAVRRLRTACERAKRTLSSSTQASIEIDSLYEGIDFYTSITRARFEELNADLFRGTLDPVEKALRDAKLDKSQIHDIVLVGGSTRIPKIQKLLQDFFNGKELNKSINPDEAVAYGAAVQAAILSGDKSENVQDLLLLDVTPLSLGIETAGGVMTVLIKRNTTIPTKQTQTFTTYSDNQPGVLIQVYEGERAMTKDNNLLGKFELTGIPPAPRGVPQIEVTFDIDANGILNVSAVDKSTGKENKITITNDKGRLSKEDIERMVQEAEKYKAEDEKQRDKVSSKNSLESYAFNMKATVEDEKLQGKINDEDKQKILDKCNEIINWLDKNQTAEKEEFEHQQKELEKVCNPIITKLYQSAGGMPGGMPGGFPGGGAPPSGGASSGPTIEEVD
# experiment.summary: SEC of peptide-Hsc70 mixture; peptide:Hsc70 molar ratio 0.25:1
Recorded Percent complexation with Hsc70, one value per entry.

Please review the entries below; each comes with its answer.
>>> df
                                     binder  result
0  FFRKNWLRLTW (Synthetic peptide) [PEP006]   25.4%
1  FFRKNLLRLTG (Synthetic peptide) [PEP001]   23.4%

Now look at this entry.
Field request: Percent complexation with Hsc70 | item: FFRKNWLKLWK (Synthetic peptide) [PEP058]
22.7%
